test system: AMPK-alpha2; construct: gene PRKAA2; conditions: concentration: 1 μM, replicates: in singlicate; n = 1;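 note: KINOMEscan kinase panel screen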
Measurement Kind: %Inh (%)

- c1ccc(-c2n[nH]cc2Nc2ccnc3ccccc23)nc1 [GW694077]: 0
- O=C(Nc1cccc(-c2nn3ccccc3c2-c2ccnc(Nc3cccc(F)c3)n2)c1)c1c(F)ccc(F)c1Cl [GSK357952]: 21
- Cl.Cl.NCC(NCc1ccc(-c2ccnc3[nH]ccc23)s1)c1ccccc1 (stereo not shown) [GSK1321565]: 28
- NCCCC(NC(=O)c1cc(Br)c(-c2ccnc3[nH]ccc23)s1)c1ccccc1.O=C(O)C(F)(F)F.O=C(O)C(F)(F)F (stereo not shown) [GSK1287544]: 35
